- Test system: Plasmodium berghei
- Method notes: Screen against P. berghei liver stage (PbLuc), transformed with Luciferase, at 10uM
- Type: functional, HepG2
- Applied conditions: tested at 10 uM
Among all 69,000 compounds or so, about 8,600 (12%) showed an effect of 50% or more. For the sample, strong results were picked, then their nearest neighbours and some compounds at random.
Experimental endpoint: INHIBITION (%)
One number for each entry, in %.

// known answers, use as guide
INSERT INTO measurements (molecule, assayed_target, experimental_endpoint, recorded_value) VALUES
  ('CCN(CCNC(=O)c1cccc(C)c1C)C1CC1', 'Plasmodium berghei', 'INHIBITION', -16),
  ('CCCN(C)C(=O)c1ccc2c(c1)[nH]c(=O)n2CCOCC', 'Plasmodium berghei', 'INHIBITION', 3.47),
  ('CCc1ncncc1C(=O)NCCNS(=O)(=O)c1ccccc1', 'Plasmodium berghei', 'INHIBITION', -118),
  ('CCOCCn1c(=O)[nH]c2cc(C(=O)N(C)Cc3cnn(C)c3)ccc21', 'Plasmodium berghei', 'INHIBITION', 24.065),
  ('O=S1(=O)CCN2C(=N1)Oc1ccc(Cl)cc12', 'Plasmodium berghei', 'INHIBITION', 30.5);

I'm hoping you can list INHIBITION for every molecule here, please.
1. CCOCCn1c(=O)[nH]c2cc(C(=O)N(C)CCc3cn[nH]c3)ccc21
2. CCS(=O)(=O)c1ccc2c(c1)N1CCS(=O)(=O)N=C1O2
3. CC(=O)c1cc(CN2C[C@@H]3CC[C@H]2CN(Cc2c(C)noc2C)C3)cs1
4. COc1ccccc1OCC(=O)NCC(C)(O)c1ccccc1 (stereo unspecified)
5. O=C(c1ccc2c(c1)CCCC2)N1CCn2ncnc2C1

[A]
50.1
20.1
-33.5
9.79
-0.275

Briefly, INHIBITION measured for CCc1ncncc1C(=O)NCCNS(=O)(=O)c1ccc(C)cc1 : -70.7

This collection of values is drawn from ChEMBL document CHEMBL4513216.
